target: HIV-1 integrase (wild-type IN) (Human immunodeficiency virus type 1 group M subtype B, UniProt P12497)
method-description: HIV-1 integrase 3′-processing assay (32P-labeled 21-mer, gel)
Type: biochemical
stated-conditions: wild-type IN 200 nM, 7.5 mM MnCl2; read-out: Inhibition of IN Catalytic Activities IC50 (μM) 3′-processing
Friendly reminder: IC50 below 40 µM is Condition met, at or above is Condition not met.

# strict comparison: is reported IC50 < 40 µM? input = CCn1cc(C(=O)O)c(=O)c2cc(F)c(N3CCN(S(=O)(=O)c4ccc(NC(C)=O)cc4)CC3)cc21
Condition not met

Hello, I'm reviewing records and need to know if IC50 of O=C(CCN1C(=O)C(=Cc2cccs2)SC1=S)Nc1cccc(O)c1 is below 40 µM. Could you check?
Condition not met

Answer whether the compound O=C(O)c1ccc(S(=O)(=O)c2ccc3c(c2)C(=O)N(c2ccc(O)c(C(=O)O)c2)C3=O)cc1 has IC50 strictly less than 40 µM
Condition not met

Determine whether this compound shows IC50 lower than 40 µM (ties excluded): O=C(CCN1C(=O)C(=Cc2cccs2)SC1=S)Nc1ccc(O)c(C(=O)O)c1
Condition met

Please state whether IC50 is below 40 µM for O=C(O)c1cc(NC(=O)c2cccc3ccccc23)c(C(=O)O)cc1NC(=O)c1cccc2ccccc12
Condition met

is_below(IC50, 40 µM) for COc1cc(/C=C2/SC(=S)N(CC(=O)O)C2=O)ccc1OCc1ccccc1 ?
Condition not met

Strictly below 40 µM: is that where IC50 of CCCc1cc2c(-c3ccccc3)cc(=O)oc2cc1OCc1ccc(C(=O)O)o1 sits?
Condition not met

Please indicate whether the reported IC50 of O=C(N/N=C/c1ccc(-c2ccc(O)c(C(=O)O)c2)o1)c1cccnc1 is strictly below 40 µM.
Condition not met

# TODO verify IC50 < 40 µM strictly for this compound: COc1ccc(C=C2SC(=S)N(CCC(=O)Nc3cccc(C(=O)O)c3)C2=O)cc1
Condition not met

Threshold test, IC50 < 40 µM: O=C(CCN1C(=O)/C(=C/c2ccccc2Cl)SC1=S)Nc1ccc([N+](=O)[O-])cc1
Condition not met

Answer whether the compound CCOc1ccc(N(CC(=O)Nc2ccccc2C(=O)O)S(=O)(=O)c2ccc(Cl)cc2)cc1 has IC50 strictly less than 40 µM
Condition not met

Hello, is IC50 of the following compound strictly smaller than 40 µM? O=C(Cc1ccccc1)Nc1cc(C(=O)O)c(NC(=O)Cc2ccccc2)cc1C(=O)O
Condition met

---

target: HIV-1 integrase (wild-type IN) (Human immunodeficiency virus type 1 group M subtype B)
method-description: HIV-1 integrase strand transfer assay (32P-labeled 21-mer, gel)
Assay type: biochemical
stated-conditions: wild-type IN 200 nM, 7.5 mM MnCl2; read-out: Inhibition of IN Catalytic Activities IC50 (μM) Strand Transfer
reported-property: IC50

Form field: reported IC50 of Cc1ccc(C=C2SC(=S)N(CC(=O)Nc3cccc(C(=O)O)c3)C2=O)cc1 [Compound X97]
> 100 µM

What IC50 value was documented for this compound, O=C(CCN1C(=O)C(=Cc2cccs2)SC1=S)Nc1cccc(O)c1 [Compound X177] ?
> 100 µM

GET /values?readout=IC50&item= O=C(NC(=S)Nc1ccc(O)c(C(=O)O)c1)c1ccccc1 [Compound X199]
> 100 µM

// IC50 lookup, key: Cc1ccc(C=C2SC(=S)N(CC(=O)Nc3ccc([N+](=O)[O-])cc3O)C2=O)cc1 [Compound X195]
> 100 µM

Record request: IC50 value, item CC1=NN2C(=N)/C(=C/c3ccc(-c4ccccc4Cl)o3)C(=O)N=C2S1 [RT42]
> 100 µM

Requested field: IC50. Item: CCn1cc(C(=O)O)c(=O)c2cc(F)c(N3CCN(C(=S)S)CC3)cc21 [ROM3A6]
> 100 µM

So what's the measured IC50 for this one? CCOC(=O)N1CCN(C(=O)CCN2C(=O)/C(=C/c3ccc(OC)c(OC)c3)SC2=S)CC1 [Compound X90]
> 100 µM

# input compound: CCOc1ccc(C=C2SC(=S)N(CCC(=O)Nc3cccc(C(=O)O)c3)C2=O)cc1 [Compound X95] ; wanted: its IC50
> 100 µM

Requested read-out: IC50. Entry: O=C(CCN1C(=O)/C(=C/c2ccccc2Cl)SC1=S)Nc1ccc([N+](=O)[O-])cc1 [Compound X200]
> 100 µM

Values from patent US8183236B2
